The values you see were collected from ChEMBL document CHEMBL1828626.

System: CCRF-CEM
Assay: Antiproliferative activity against human CCRF-CEM cells at 50 uM after 72 hrs relative to control
Format: functional
This section presents compounds with their documented Activity values.

1. O=C(Cc1csc(-c2ccc(OCCN3CCOCC3)cc2)n1)NCc1ccccc1Cl: 30%

Lookup: Assign Activity to the following record: `O=C(Cc1csc(-c2ccc(OCCN3CCOCC3)cc2)n1)NCc1ccc(F)cc1`
Found: 71%

Lookup: Report Activity for `Cc1ccc(CNC(=O)Cc2csc(-c3ccc(OCCN4CCOCC4)cc3)n2)cc1`
Found: 61%

Lookup: Identify measured Activity associated with `O=C(Cc1csc(-c2ccc(OCCN3CCOCC3)cc2)n1)NCc1ccccc1`
Found: 30%

Lookup: Find the measured Activity of `O=C(Cc1csc(-c2ccc(OCCN3CCOCC3)cc2)n1)NCc1ccc(Cl)c(Cl)c1` and report it.
Found: 69%
